protocol-summary: NCI Yeast Anticancer Drug Screen. Data for the mlh1 rad18 strain (AID 175)
measurement-setup: S. cerevisiae mlh1 rad18 strain growth inhibition; at 50.0 µM; stronger effect = higher value
This is part of a sample that, as a whole, favours compounds with a hit. Of some 79,000 tested, about 15% had one in any assay.
Class yes: growth inhibition at least 30%. Class no: growth inhibition below 30%.

{"compound": "FS(F)(F)(F)(F)c1cccc(NC(=S)SCc2ccc3c(c2)OCO3)c1", "assigned-category": "yes"}
{"compound": "CCC[CH2][Sn]([CH2]CCC)([O]C(=O)c1cccc(F)c1F)[O][Sn]([CH2]CCC)([CH2]CCC)[O]C(=O)c1cccc(F)c1F", "assigned-category": "yes"}
{"compound": "CC(=O)c1cc(C)ccc1Br", "assigned-category": "no"}
{"compound": "O=C(CCCCl)c1ccccc1", "assigned-category": "no"}
{"compound": "NC(N)=NC1CCc2ccccc2C1 (stereo unspecified)", "assigned-category": "no"}
{"compound": "CC1=N/C(=C\\c2cccs2)C(=O)O1", "assigned-category": "no"}

Query :: Textbook exercise: given the entry O=C(O)C1Cc2c([nH]c3ccccc23)C(c2ccccc2)N1 (stereo unspecified) , state whether its growth inhibition is greater than or equal to 30%.
Result :: no

Query :: Textbook exercise: given the entry Cc1ccc(S(=O)(=O)C(C#N)(Cc2c[nH]c3ccccc23)Cc2c[nH]c3ccccc23)cc1 , state whether its growth inhibition is greater than or equal to 30%.
Result :: no

Query :: Textbook exercise: given the entry O=C1C(Cl)N(c2ccccc2[N+](=O)[O-])C1c1c[nH]c2ccccc12 (stereo unspecified) , state whether its growth inhibition is greater than or equal to 30%.
Result :: no

Query :: Textbook exercise: given the entry Cc1cc(Cl)nc2ccc(Cc3ccc(Cl)cc3)cc12 , state whether its growth inhibition is greater than or equal to 30%.
Result :: no

Query :: Textbook exercise: given the entry CC(=O)OCC1OC(N2C(c3ccccc3)=CC(c3ccco3)C(C#N)=C2S)C(OC(C)=O)C(OC(C)=O)C1OC(C)=O (stereo unspecified) , state whether its growth inhibition is greater than or equal to 30%.
Result :: no
